For each record, write down the corresponding human PIR RG (% parent).
# tested_on: T1, human parathyroid hormone receptor (PTHR) (human, UniProt Q03431 27-593)
# T1 construct: Assayed in membranes of HKRK-B7 cells or of transiently transfected COS-7 cells, or on intact HKRK-B7/HKRK-B64/COS-7 cells; RG = co-transfected with negative-dominant Galpha-s; R0 = receptor alone plus GTPgammaS; also called hPTHR; human PTH receptor
# T1 sequence: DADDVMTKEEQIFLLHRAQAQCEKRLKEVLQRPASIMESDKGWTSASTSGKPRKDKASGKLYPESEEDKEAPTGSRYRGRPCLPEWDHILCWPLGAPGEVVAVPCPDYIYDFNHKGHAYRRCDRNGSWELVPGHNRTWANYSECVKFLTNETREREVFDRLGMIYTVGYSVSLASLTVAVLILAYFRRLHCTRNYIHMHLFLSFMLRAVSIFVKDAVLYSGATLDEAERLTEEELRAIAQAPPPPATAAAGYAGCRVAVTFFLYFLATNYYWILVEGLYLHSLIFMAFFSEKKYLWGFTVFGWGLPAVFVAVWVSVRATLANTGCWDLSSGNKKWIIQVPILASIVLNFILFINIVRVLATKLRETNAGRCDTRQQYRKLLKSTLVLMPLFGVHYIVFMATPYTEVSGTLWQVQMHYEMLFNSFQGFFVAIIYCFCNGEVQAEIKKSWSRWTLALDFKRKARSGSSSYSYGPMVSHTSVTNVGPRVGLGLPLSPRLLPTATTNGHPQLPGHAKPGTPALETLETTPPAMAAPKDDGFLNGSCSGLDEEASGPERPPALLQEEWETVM
# assay_method_text: screen, binding to human PIR RG relative to parent PTHrP(1-28)NH; footnote not given
Ends that are not written are not given here.
Express the result in % parent but write the number alone.

Report human PIR RG (% parent) for AVSEHQLLHDKGKSIQDERRRNFLHALI-NH2 [E18,N22,A26-PTHrP(1-28)NH]
140

Report human PIR RG (% parent) for AVSEHQLLHDKGKSIQDARRRNFLHALI-NH2 [A18,26,N22-PTHrP(1-28)NH]
161

Report human PIR RG (% parent) for AVSEHQLLHDKGKSIQDERRRAFLHKLI-NH2 [E18,A22,K26-PTHrP(1-28)NH]
145

Report human PIR RG (% parent) for AVSEHQLLHDKGKSIQDERRRLFLHALI-NH2 [E18,L22,A26-PTHrP(1-28)NH]
125

Report human PIR RG (% parent) for AVSEHQLLHDKGKSIQDERRRWFLHALI-NH2 [E18,W22,A26-PTHrP(1-28)NH]
116

Report human PIR RG (% parent) for AVSEHQLLHDKGKSIQDARRRAFLHKLI-NH2 [A18,22,K26-PTHrP(1-28)NH]
193
